Target: IKZF2 (Helios) (Homo sapiens, UniProt Q96SW2+Q9UKS7)
Construct: Leu-Asp junction (codons ctcgac before the linker); mScarlet (behind P2A) (C, cleaved yes); expressed in transfected cells
Sequence (Q9UKS7 whole entry): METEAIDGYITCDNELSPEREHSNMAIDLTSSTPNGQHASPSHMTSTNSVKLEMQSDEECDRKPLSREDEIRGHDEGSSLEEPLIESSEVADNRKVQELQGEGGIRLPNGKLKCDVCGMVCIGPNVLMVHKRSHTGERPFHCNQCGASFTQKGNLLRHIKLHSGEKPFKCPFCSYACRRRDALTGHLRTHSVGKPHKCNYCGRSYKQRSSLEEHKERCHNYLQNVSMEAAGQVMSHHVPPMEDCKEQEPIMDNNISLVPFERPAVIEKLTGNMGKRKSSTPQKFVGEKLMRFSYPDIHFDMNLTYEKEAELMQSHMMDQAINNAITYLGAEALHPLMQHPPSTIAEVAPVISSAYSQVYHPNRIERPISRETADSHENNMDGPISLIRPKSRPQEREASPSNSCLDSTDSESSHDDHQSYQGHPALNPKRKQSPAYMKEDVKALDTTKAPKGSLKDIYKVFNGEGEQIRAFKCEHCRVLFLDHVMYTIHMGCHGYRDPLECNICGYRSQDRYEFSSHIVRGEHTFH
Sequence (Q96SW2 whole entry): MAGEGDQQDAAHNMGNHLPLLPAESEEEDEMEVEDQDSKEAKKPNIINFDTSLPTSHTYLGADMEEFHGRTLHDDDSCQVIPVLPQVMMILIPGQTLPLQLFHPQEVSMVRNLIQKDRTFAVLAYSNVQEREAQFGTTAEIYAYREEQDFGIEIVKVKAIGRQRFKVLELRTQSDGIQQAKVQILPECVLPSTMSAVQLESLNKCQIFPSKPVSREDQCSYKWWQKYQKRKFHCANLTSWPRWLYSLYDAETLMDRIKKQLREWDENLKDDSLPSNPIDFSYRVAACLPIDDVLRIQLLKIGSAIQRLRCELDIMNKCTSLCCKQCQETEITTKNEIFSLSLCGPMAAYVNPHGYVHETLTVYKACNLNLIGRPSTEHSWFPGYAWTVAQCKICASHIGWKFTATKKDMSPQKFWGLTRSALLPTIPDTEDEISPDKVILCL
Sequence (Q16531 whole entry partner): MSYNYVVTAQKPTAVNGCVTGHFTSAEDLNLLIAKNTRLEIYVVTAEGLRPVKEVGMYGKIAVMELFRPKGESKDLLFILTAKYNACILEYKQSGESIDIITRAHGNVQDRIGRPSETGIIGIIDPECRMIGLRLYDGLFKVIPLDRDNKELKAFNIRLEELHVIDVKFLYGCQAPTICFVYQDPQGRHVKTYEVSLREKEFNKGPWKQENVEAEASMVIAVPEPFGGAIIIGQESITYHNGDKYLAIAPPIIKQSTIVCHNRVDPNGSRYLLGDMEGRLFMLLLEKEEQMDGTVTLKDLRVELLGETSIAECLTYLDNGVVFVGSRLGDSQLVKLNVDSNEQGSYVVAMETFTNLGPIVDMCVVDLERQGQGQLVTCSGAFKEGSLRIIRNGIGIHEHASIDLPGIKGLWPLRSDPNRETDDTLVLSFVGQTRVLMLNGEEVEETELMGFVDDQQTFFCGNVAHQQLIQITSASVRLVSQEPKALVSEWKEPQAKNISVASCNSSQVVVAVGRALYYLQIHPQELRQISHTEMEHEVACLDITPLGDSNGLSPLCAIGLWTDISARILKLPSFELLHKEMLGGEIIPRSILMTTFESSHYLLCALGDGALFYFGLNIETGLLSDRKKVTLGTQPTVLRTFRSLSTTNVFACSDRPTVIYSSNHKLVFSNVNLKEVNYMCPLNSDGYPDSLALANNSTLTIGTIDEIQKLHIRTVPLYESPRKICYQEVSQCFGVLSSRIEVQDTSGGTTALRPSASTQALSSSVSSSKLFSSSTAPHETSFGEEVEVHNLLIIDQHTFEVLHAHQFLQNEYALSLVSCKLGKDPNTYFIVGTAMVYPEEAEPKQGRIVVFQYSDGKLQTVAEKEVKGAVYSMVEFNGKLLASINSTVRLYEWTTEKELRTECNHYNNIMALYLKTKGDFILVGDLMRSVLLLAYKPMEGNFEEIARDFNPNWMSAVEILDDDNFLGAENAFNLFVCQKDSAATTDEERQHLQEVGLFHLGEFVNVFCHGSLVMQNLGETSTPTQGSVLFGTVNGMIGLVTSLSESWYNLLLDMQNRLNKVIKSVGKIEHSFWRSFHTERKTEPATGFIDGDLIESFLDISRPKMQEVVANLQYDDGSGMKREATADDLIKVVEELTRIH
Experiment: IKZF2 reporter degradation assay (HEK 293T IKZF2-mNeonGreen reporter cell line)
Assay type: cell-based
Conditions: HEK-293T, 24 h, @ 1 μM, HEK 293T IKZF2-mNeonGreen reporter, 24 hours incubation
Protocol: Polycistronic plasmids were constructed for the mammalian expression of fluorescent reporter fusions of human transcription factors IKZF1 (Ikaros), IKZF2 (Helios), and IKZF3 (Aiolos). […] The DNA sequences of the open reading frames are as follows: […] The IKZF1/IKZF2/IKZF3 degradation assays were carried out by harvesting the HEK 293T reporter cell lines and resuspending the cells in media formulated for reduced background fluorescence (FluoroBrite; Thermo Fisher). […]
Class (by inhibition at 1 µM) -- lower level: < 70%; middle level: ≥ 70% and < 80%; upper level: ≥ 80%

(Q) Hey, which category is O=C1CCC(N2Cc3cc(OC4CCCCC4N4CC(C(=O)N5CCCCC5)C4)ccc3C2=O)C(=O)N1 (single isomer, unassigned) [Compound 22-A] in, do you know?
(A) middle level

(Q) Hey, which category is O=C1CCC(N2Cc3cc(O[C@H]4CCCC[C@@H]4N4CC(C5CCN(C(=O)c6ccccc6)CC5)C4)ccc3C2=O)C(=O)N1 (stereo partly drawn) [Compound 24-A] in, do you know?
(A) middle level

(Q) Hey, which category is O=C1CCC(N2Cc3cc(O[C@H]4CCCC[C@@H]4N4CC(c5ccncc5Cl)C4)ccc3C2=O)C(=O)N1 (mixture of isomers) [Compound 173-B] in, do you know?
(A) lower level
